Cited source: patent US11066414B2

- Assay system: Human Cot (Homo sapiens (Human))
- Protocol notes: High Throughput Cot Biochemical Assay
- Measurement setup: IC50 HTRF, Cot HTRF (TR-FRET KinEASE) biochemical assay, 400 μM ATP
Rule: measured IC50 below 7 nM gets T; anything equal to or greater than 7 nM gets F.

Previously resolved entries follow.
1) Cc1nc(F)ccc1[C@H](Nc1cc(C#N)c2ncc(C#N)c(NCC3(C(F)(F)F)CCC3)c2c1)c1cn(C2(C(F)F)CC2)nn1 [Example 831]
F
2) Cc1nc(F)ccc1[C@H](Nc1cc(Cl)c2ncc(C#N)c(NCC(C)(C)C)c2c1)c1nnn([C@@H](C)CF)c1F [Example 952]
T

Just wondering, is IC50 of Cc1nc(F)ccc1[C@H](Nc1cc(Cl)c2ncc(C#N)c(NCC(C)(C)C)c2c1)c1nnn(C2(C3CC3)CC2)c1F [Example 949] below 7 nM?
T

====

Kindly supply the reported IC50 values for the records listed here.
- Assay system: Human Cot (Homo sapiens (Human), UniProt P41279)
- Sequence (P41279 30-397): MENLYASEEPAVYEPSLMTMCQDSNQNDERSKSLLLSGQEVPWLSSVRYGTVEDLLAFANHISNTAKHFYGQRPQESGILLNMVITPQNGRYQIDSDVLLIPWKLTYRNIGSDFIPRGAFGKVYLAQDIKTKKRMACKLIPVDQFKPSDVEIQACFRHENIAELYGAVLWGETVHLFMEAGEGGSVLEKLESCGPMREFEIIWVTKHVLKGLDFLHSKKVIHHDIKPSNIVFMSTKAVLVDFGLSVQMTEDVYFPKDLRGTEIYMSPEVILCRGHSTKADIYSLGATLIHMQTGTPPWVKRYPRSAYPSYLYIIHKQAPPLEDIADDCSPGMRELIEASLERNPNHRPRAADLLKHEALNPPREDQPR
- Protocol notes: High Throughput Cot Biochemical Assay
- Measurement setup: IC50 HTRF, Cot HTRF (TR-FRET) biochemical assay
Express your answer as a number followed by its unit.

Worked cases, answers included:
1. CC(C)(C)CNc1c(C#N)cnc2c(C#N)cc(N[C@H](c3cn(C4(C(F)(F)F)CC4)nn3)c3ccc(C#N)c4cnccc34)cc12 [Example 670]
5 nM
2. Cc1nc(F)ccc1[C@H](Nc1cc(F)c2ncc(C#N)c(NCC(C)(C)C)c2c1)c1cn(C2(C(F)F)CC2)nn1 [Example 514]
4 nM
3. CC(C)(C)CNc1c(C#N)cnc2c(Cl)cc(N[C@H](c3cn(C4(C#N)CC4)nn3)c3cccc4ncsc34)cc12 [Example 415]
3 nM

Give measured IC50 for every item shown.
1. CC(C)(C)N1CCC(n2cc([C@@H](Nc3cc(Cl)c4ncc(C#N)c(Nc5ccc(F)c(Cl)c5)c4c3)c3cccc4c3CNC4)nn2)CC1 [Example 59]
2. N#Cc1cnc2c(Cl)cc(N[C@@H](c3cccnc3)c3cn(CCN4CCCCC4)nn3)cc2c1Nc1ccc(F)c(Cl)c1 [Example 334]
3. Cc1nc(F)ccc1[C@H](Nc1cc(Cl)c2ncc(C#N)c(Nc3cnc(F)c(F)c3)c2c1)c1cn(C2(C(F)F)CC2)nn1 [Example 742]
4. CC(C)(C)CNc1c(C#N)cnc2c(C#N)cc(N[C@H](c3cn(C4(C(N)=O)CCC4)nn3)c3cccc4cnccc34)cc12 [Example 587]
5. [2H]C([2H])([2H])C([2H])([2H])C(Nc1c(C#N)cnc2c(Cl)cc(N[C@@]([2H])(c3ccc(F)nc3)c3cn(C4CC4)nn3)cc12)c1ccccc1 (stereo partly shown) [Example 115]
6. Cn1cncc1[C@H](Nc1cc(Cl)c2ncc(C#N)c(Nc3ccc(F)c(Cl)c3)c2c1)c1cn(C2CCN(C(C)(C)C)CC2)nn1 [Example 342]
7. Cc1ncsc1[C@H](Nc1cc(Cl)c2ncc(C#N)c(Nc3ccc(F)c(Cl)c3)c2c1)c1cn(C2CCN(C(C)(C)C)CC2)nn1 [Example 307]
8. Cc1nc(F)ccc1[C@H](Nc1cc(C#N)c2ncc(C#N)c(NCC(C)(C)C)c2c1)c1cn(C2(C3CC3)CC2)nn1 [Example 621]

["2 nM", "4 nM", "17 nM", "1 nM", "5 nM", "38 nM", "4 nM", "1 nM"]

Give measured IC50 for every item shown.
1. Cc1nc(F)ccc1[C@H](Nc1cc(Cl)c2ncc(C#N)c(NCC(C)(C)C)c2c1)c1cn(C2CC(F)(F)C2)nn1 [Example 645]
2. Cc1nc(F)ccc1[C@H](Nc1cc(F)c2ncc(C#N)c(NCC(C)(C)C)c2c1)c1cn(C2(C(N)=O)CC2)nn1 [Example 486]

1: 11 nM; 2: 3 nM

====

- Assay system: Human Cot (Homo sapiens (Human))
- Protocol notes: High Throughput Cot Biochemical Assay
- Measurement setup: IC50 HTRF, Cot HTRF (TR-FRET) biochemical assay
Reported property: pIC50
Give bare numbers, as −log10 of the molar value.

1) CC(C)(C)OC(=O)N1CCC(n2cc([C@@H](Nc3cc(Cl)c4ncc(C#N)c(Nc5ccc(F)c(Cl)c5)c4c3)c3ccsc3)nn2)CC1
6.83
2) Cc1nc(F)ccc1[C@H](Nc1cc(Cl)c2ncc(C#N)c(NCC(C)(C)C)c2c1)c1cn(C2(CF)CC2)nn1
8.52
3) CC(C)(C)CNc1c(C#N)cnc2c(Cl)cc(N[C@H](c3cn(C4(C(F)F)CC4)nn3)c3cccc4ncsc34)cc12
8.40
4) CC[C@@H](Nc1c(C#N)cnc2c(Cl)cc(N[C@@H](c3cccnc3)c3cn(CC(F)(F)F)nn3)cc12)c1ccccc1
8.40
5) CC(C)(C)CNc1c(C#N)cnc2c(C#N)cc(N[C@H](c3cn(C4(c5ccncc5)CC4)nn3)c3cccc4ncsc34)cc12
9.00

Give measured pIC50 for every item shown.
1. N#Cc1cnc2c(Cl)cc(N[C@@H](c3cscn3)c3cn(C4COC4)nn3)cc2c1Nc1ccc(F)c(Cl)c1
2. CCCN1CCC(n2cc([C@@H](Nc3cc(Cl)c4ncc(C#N)c(Nc5ccc(F)c(Cl)c5)c4c3)c3cncs3)nn2)CC1

[8.40, 8.52]

====

- Test system: TNFα
- Protocol notes: Cot Monocyte TNFα Cell Based Assay
- Measurement setup: Homo sapiens, Monocyte, read-out: EC50 TNF, LPS-stimulated human monocytes, TNFα
Kindly supply the reported pEC50 values for the records listed here.
One number for each entry, as −log10 of the molar value.

1. CC(C)(C)CNc1c(C#N)cnc2c(C#N)cc(N[C@H](c3cn(C4(C)CC4)nn3)c3cccc4ncccc34)cc12
7.49

Give measured pEC50 for every item shown.
1. CC[C@@H](Nc1c(C#N)cnc2c(Cl)cc(N[C@H](c3c[nH]nn3)c3cccnc3C)cc12)c1ccccc1
2. CC(C)(C)CNc1c(C#N)cnc2c(C#N)cc(N[C@H](c3cn(C4(C(N)=O)CC4)nn3)c3cccc4ncccc34)cc12
3. CC(C)(C)N1CCC(n2cc([C@@H](Nc3cc(Cl)c4ncc(C#N)c(Nc5ccc(F)c(Cl)c5)c4c3)c3ccc4c(c3)NCC4)nn2)CC1
4. N#Cc1cnc2c(Cl)cc(N[C@H](c3c[nH]nn3)c3cccnc3F)cc2c1Nc1cnc(F)c(F)c1

6.46
6.01
5.81
5.88

Give measured pEC50 for every item shown.
1. CC(C)(C)CNc1c(C#N)cnc2c(C#N)cc(N[C@H](c3cn(C4CC4)nn3)c3cccc4cnccc34)cc12
2. Cc1nc(F)ccc1[C@H](Nc1cc(Cl)c2ncc(C#N)c(NCC(C)(C)CCl)c2c1)c1cn(C2(C(F)(F)F)CC2)nn1
3. CCN1CCC(n2cc([C@@H](Nc3cc(Cl)c4ncc(C#N)c(Nc5ccc(F)c(Cl)c5)c4c3)c3cncs3)nn2)CC1
4. Cc1nc(F)ccc1[C@H](Nc1cc(C#N)c2ncc(C#N)c(NCC(C)(C)C)c2c1)c1cn(C2(C(F)(F)F)COC2)nn1
5. Cc1nc(F)ccc1C(Nc1cc(Cl)c2ncc(C#N)c(NCC(C)(C)C)c2c1)c1cn(C)nn1 (centres unmarked)
6. Cn1ccc2c([C@H](Nc3cc(Cl)c4ncc(C#N)c(NCC(C)(C)C)c4c3)c3cn(C4(CF)CC4)nn3)cccc2c1=O
7. Cc1ncsc1[C@H](Nc1cc(Cl)c2ncc(C#N)c(Nc3ccc(Cl)c(Cl)c3F)c2c1)c1cn(C2CCN(C(C)(C)C)CC2)nn1

1: 7.74; 2: 7.22; 3: 6.77; 4: 7.06; 5: 6.62; 6: 7.57; 7: 6.76

Value of measured pEC50 for the entry CC(C)n1cc([C@@H](Nc2cc(Cl)c3ncc(C#N)c(N[C@@H](c4ccccc4)C(C)(C)O)c3c2)c2cccnc2)nn1 : 5.67

====

- Assay system: Human Cot (Homo sapiens (Human), UniProt P41279)
- Protocol notes: High Throughput Cot Biochemical Assay
- Measurement setup: read-out: IC50 HTRF; Cot HTRF (TR-FRET) biochemical assay
Reported property: IC50 (nM)
Give bare numbers, in nM.

1. Cn1cnc2cccc([C@H](Nc3cc(C#N)c4ncc(C#N)c(NCC(C)(C)C)c4c3)c3cn(C4(C(F)F)CC4)nn3)c21
2
2. CC(C)(C)CNc1c(C#N)cnc2c(C#N)cc(N[C@H](c3cn(C4(C(F)(F)F)CC4)nn3)c3ccc(F)c4cnccc34)cc12
5

Give measured IC50 for every item shown.
1. Cc1nc(F)ccc1[C@H](Nc1cc(Cl)c2ncc(C#N)c(NCC(C)(C)C)c2c1)c1cn([C@@H]2C[C@@H]2F)nn1
2. N#Cc1csc([C@H](Nc2cc(Cl)c3ncc(C#N)c(Nc4ccc(F)c(Cl)c4)c3c2)c2cn(CCN3CCOCC3)nn2)c1
3. CC[C@@H](Nc1c(C#N)cnc2c(Cl)cc(NC(c3cn(C4CC4)nn3)c3cccnc3Cl)cc12)c1ccccc1 (stereo partly shown)
4. Cc1nc(F)ccc1[C@H](Nc1cc(Cl)c2ncc(C#N)c(NCC(C)(C)C)c2c1)c1cn(C2(C3CC3)CC2)nn1
5. Cn1cnc(C(Nc2cc(Cl)c3ncc(C#N)c(Nc4ccc(F)c(Cl)c4)c3c2)c2cccnc2)c1 (stereo not shown)

2
65
8
2
9
